Known Papp A→B at 2 h, 1 mM of a selection of compounds
- protocol.text: Trans-epithelial transport (AP-to-BL) across differentiated Caco-2 monolayer
- Type: in vitro ADME, human
- settings: human, Caco-2, 1 mM in AP chamber, apical pH 6.5, basolateral pH 7.5, read-out: Papp (apparent permeability coefficient), absorptive direction AP-to-BL
Reply with the number and its unit after it.

O=C(O)C1=C/C(=C/C=[N+]2/CCC[C@H]2C(=O)[O-])C[C@@H](C(=O)O)N1 [IND, indicaxanthin] | 0.893 ×10⁻⁶ cm/s

Lab note: next compound to report on.
Papp A→B at 2 h, 1 mM lookup needed for O=C(O)C1=C/C(=C/C=[N+]2/c3cc(O)c(O[C@@H]4O[C@H](CO)[C@@H](O)[C@H](O)[C@H]4O)cc3C[C@H]2C(=O)[O-])C[C@@H](C(=O)O)N1 [BET, betanin] , thanks.
0.415 ×10⁻⁶ cm/s
